These data points were gathered from PubChem BioAssay (NCI).

Listed here: items and their measured growth inhibition.
test: NCI Yeast Anticancer Drug Screen. Data for the sgs1 mgt1 strain (AID 161);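 also: 0% = growth of cultures given vehicle only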; conditions: S. cerevisiae sgs1 mgt1 strain, at 50.0 µM, active compounds read high
This is part of a sample that, as a whole, favours compounds with a hit. Of some 79,000 tested, about 15% had one in any assay.
Reported endpoint: growth inhibition (%)

[
  {
    "Compound": "CN(C)Cc1ccccc1COC(=O)/C=C/c1ccccc1",
    "Value unit": "%",
    "Recorded number": 8.8
  },
  {
    "Compound": "Cn1c2c(F)cccc2c(=O)c2c(O)cc3c(c21)C=CC(C)(C)O3",
    "Value unit": "%",
    "Recorded number": -27.4
  },
  {
    "Compound": "COC(CCl)OC",
    "Value unit": "%",
    "Recorded number": 15.8
  },
  {
    "Compound": "N=C1N=Nc2nc(CC(=O)c3ccc(Cl)cc3Cl)c(O)n21",
    "Value unit": "%",
    "Recorded number": 1.05
  },
  {
    "Compound": "O=C(O)c1cccc(F)n1",
    "Value unit": "%",
    "Recorded number": -1.8
  },
  {
    "Compound": "O=C(OC1CCCC1)c1ccccc1",
    "Value unit": "%",
    "Recorded number": -26.1
  },
  {
    "Compound": "CC(=O)Nc1ccc(/C=N/Nc2c3ccccc3nc3ccccc23)cc1",
    "Value unit": "%",
    "Recorded number": 0.3
  },
  {
    "Compound": "CC(=O)N(C(=O)CC(=O)NN)c1ccc(Cl)cc1",
    "Value unit": "%",
    "Recorded number": 3.65
  },
  {
    "Compound": "CC(=O)c1cccc(NC(=O)Nc2cccc3ccccc23)c1",
    "Value unit": "%",
    "Recorded number": 14.9
  },
  {
    "Compound": "Cc1cc2c(c(N)c1C)C(=O)c1ccccc1C2=O",
    "Value unit": "%",
    "Recorded number": 31.7
  },
  {
    "Compound": "COc1cccc2c1CCC1=CC(=O)CCC12C (centres undefined)",
    "Value unit": "%",
    "Recorded number": 17.9
  },
  {
    "Compound": "Cc1c(-c2coc(-c3ccc(Cl)cc3)n2)c(=O)n(-c2ccccc2)n1C",
    "Value unit": "%",
    "Recorded number": -22.1
  },
  {
    "Compound": "CC(C)OC(=O)CC1CCCCC1",
    "Value unit": "%",
    "Recorded number": -14.1
  },
  {
    "Compound": "COCn1c(C(=O)c2ccc(OC)cc2)cc2ccccc21",
    "Value unit": "%",
    "Recorded number": -3.9
  }
]
